Values from patent US20250114345A1

Target: p300 (Homo sapiens)
Construct: host or cells: A549 P300 HiBit cells
Test: P300 degradation, HiBit technology in A549 P300 HiBit cells (2 h)
Format: cell-based
Conditions: A549, A549 P300 HiBit cells, 2 hrs post treatment
reportedProperty: Dmax

Task item: Entry under review: CNC(=O)c1c[nH]c2ccc(-c3cccc4cc(-c5ccc(C(=O)NCC#Cc6ccc7occ(C8CCC(=O)NC8=O)c7c6)nc5)ncc34)cc12 (stereo not drawn) [Example C1] . Reported Dmax?
Reply: > 80%

Task item: Now consider Cc1cc2c(N3CCCc4nc(-c5ccc(C(=O)NCC#Cc6cc7c(C8CCC(=O)NC8=O)nccc7s6)nc5)ncc43)cc(C3CCOCC3)cc2n(C)c1=O (stereo not drawn) [Example B81] .
Reply: > 80%

Task item: Also Cc1cc2c(N3CCCc4nc(-c5ccc(C(=O)NCC#Cc6ccc7occ(C8CCC(=O)NC8=O)c7c6)nc5)ncc43)nc(C3CCOCC3)cc2n(C)c1=O (stereo not drawn) [Example B70] , if possible.
Reply: 60 to 79%

====

Molecular target: CBP (Homo sapiens)
Construct: host or cells: A549 CBP HiBit cells
Sequence (Q92793 whole entry): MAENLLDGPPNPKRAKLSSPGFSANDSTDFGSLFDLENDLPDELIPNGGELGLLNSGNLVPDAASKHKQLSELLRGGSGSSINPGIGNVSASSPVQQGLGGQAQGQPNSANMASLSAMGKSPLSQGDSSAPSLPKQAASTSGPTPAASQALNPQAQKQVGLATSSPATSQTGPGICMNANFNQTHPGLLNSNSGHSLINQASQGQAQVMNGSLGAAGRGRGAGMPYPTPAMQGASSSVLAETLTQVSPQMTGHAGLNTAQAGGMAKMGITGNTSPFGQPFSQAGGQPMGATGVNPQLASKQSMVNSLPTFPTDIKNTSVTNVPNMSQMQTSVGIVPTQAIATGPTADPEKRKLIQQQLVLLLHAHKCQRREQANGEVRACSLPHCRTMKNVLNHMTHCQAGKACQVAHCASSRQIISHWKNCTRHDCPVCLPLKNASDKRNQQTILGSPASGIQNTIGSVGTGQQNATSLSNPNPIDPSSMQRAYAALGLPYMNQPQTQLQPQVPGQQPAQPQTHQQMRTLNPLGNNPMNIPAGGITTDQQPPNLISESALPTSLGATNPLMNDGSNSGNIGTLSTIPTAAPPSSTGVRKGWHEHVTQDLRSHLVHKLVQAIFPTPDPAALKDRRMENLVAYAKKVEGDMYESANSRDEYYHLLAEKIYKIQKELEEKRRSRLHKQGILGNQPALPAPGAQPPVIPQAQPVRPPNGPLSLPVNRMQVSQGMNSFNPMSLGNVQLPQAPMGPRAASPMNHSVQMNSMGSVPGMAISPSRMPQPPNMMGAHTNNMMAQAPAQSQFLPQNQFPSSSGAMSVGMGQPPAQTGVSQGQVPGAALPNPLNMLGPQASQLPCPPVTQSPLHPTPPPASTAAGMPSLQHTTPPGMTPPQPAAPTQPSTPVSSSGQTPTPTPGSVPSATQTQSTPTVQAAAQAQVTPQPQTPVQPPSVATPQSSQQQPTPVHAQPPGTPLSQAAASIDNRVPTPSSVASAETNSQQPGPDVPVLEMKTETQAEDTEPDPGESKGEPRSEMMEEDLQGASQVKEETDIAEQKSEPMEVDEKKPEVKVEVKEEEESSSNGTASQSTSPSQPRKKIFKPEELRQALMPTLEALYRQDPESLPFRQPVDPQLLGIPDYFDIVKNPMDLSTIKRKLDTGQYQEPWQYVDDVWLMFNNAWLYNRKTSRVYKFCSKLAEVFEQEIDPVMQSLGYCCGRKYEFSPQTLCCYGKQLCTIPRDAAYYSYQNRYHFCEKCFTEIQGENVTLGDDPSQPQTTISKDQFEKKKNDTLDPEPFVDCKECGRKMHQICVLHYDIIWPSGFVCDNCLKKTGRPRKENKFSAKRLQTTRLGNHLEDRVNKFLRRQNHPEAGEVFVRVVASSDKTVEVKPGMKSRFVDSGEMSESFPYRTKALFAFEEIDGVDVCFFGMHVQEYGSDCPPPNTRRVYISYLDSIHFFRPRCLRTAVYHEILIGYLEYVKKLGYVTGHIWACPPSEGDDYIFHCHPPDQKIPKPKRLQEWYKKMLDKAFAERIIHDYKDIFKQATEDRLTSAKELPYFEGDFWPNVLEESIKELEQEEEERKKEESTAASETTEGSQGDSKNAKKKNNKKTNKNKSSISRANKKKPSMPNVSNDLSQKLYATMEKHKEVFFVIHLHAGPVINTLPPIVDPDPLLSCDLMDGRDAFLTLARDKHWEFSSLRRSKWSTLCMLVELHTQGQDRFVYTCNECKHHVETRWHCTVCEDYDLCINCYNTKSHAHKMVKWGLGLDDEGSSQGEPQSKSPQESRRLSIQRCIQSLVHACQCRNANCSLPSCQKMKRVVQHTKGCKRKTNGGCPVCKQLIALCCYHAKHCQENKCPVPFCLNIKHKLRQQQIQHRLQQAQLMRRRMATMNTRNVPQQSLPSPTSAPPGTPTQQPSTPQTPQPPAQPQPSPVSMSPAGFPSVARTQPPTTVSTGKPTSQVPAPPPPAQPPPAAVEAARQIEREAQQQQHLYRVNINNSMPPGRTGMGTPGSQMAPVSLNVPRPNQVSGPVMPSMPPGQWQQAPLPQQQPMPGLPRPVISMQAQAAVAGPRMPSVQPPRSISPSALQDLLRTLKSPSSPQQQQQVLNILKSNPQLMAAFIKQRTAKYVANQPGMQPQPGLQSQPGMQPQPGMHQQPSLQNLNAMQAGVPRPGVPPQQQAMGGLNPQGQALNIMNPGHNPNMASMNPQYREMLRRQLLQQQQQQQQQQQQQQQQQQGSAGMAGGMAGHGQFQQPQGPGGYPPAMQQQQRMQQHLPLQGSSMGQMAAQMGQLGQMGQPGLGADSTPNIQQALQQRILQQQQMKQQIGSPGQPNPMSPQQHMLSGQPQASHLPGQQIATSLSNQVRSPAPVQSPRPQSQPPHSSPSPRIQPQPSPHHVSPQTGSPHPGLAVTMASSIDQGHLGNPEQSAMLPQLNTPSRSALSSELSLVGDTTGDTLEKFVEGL
Experiment: CBP degradation, HiBit technology in A549 CBP HiBit cells (24 h)
Format: cell-based
Details: 24 hrs post treatment
Task for the reader: assign each of the following molecules its reported Dmax.

Task item: Returns the measured Dmax for the input molecule. Input: CCc1cc(-c2cccc3cc(-c4ccc(C(=O)NCC#Cc5ccc6c(c5)n(C5CCC(=O)NC5=O)c(=O)n6C)nc4)ncc23)c2cc(C)c(=O)n(C)c2c1 (stereo not shown) [Example B8]
Reply: 40 to 59%

Task item: And the next one, Cc1cc2c(N3CCCc4nc(-c5ccc(C(=O)NCC#Cc6cc7c(C8CCC(=O)NC8=O)nccc7o6)nc5)ncc43)nc(N3CCC3)cc2n(C)c1=O (stereo not shown) [Example B35] ?
Reply: 20 to 39%

Task item: Here is the next molecule: Cc1cc(-c2ncc3c(n2)OCCN3c2cc(C)c3c(c2)n(C)c(=O)n3C)cnc1C(=O)NCC#Cc1ccc2occ(C3CCC(=O)NC3=O)c2c1 (stereo not shown) [Example A88]
Reply: < 20%

Task item: Can you check Cc1cc2c(N3CCCc4nc(-c5ccc(C(=O)NCC#Cc6ccc7occ(C8CCC(=O)NC8=O)c7c6)nc5)ncc43)cncc2n(C)c1=O (stereo not shown) [Example B69] next?
Reply: < 20%

Task item: # iterate: [2H]C([2H])(C#Cc1ccc2occ(C3CCC(=O)NC3=O)c2c1)NC(=O)c1ccc(-c2ncc3c(n2)CCCN3c2cc(C3CCOCC3)cc3c2cc(C)c(=O)n3C)cn1 (stereo not shown) [Example B117]
Reply: < 20%

Task item: Entry CC(C)c1cc(-c2cccc3cc(-c4ccc(C(=O)NCC#Cc5ccc6ncc(C7CCC(=O)NC7=O)n6c5)nc4)ncc23)cc2c1n(C)c(=O)n2C (stereo not shown) [Example A25] please
Reply: < 20%

Task item: // query: Cn1c(=O)n(C)c2cc(-c3cccc4cc(-c5ccc(C(=O)NCC#Cc6cc7c([C@H]8CCC(=O)NC8=O)cccc7o6)nc5)ncc34)ccc21 [Example A170]
Reply: < 20%

Task item: Follow-up item: CN1Cc2c(-c3cccc4cc(-c5ccc(C(=O)NCC#Cc6ccc7cnn(C8CCC(=O)NC8=O)c7c6)nc5)ncc34)cc(C(C)(F)F)cc2N(C)C1=O (stereo not shown) [Example B9]
Reply: 40 to 59%

Task item: // query: CC(C)c1cc(C2CC(C)(C)Oc3cc(-c4ccc(C(=O)NCC#Cc5ccc6occ(C7CCC(=O)NC7=O)c6c5)nc4)ncc32)cc2c1n(C)c(=O)n2C (stereo not shown) [Example A83]
Reply: < 20%

Task item: // next record Cc1cc2c(N3CCN(C)c4nc(-c5ccc(C(=O)NCC#Cc6ccc7occ(C8CCC(=O)NC8=O)c7c6)nc5)ncc43)cc(C3CCOCC3)cc2n(C)c1=O (stereo not shown) [Example B124]
Reply: 40 to 59%

Task item: Again, but for Cn1c(=O)n(C)c2c(C3CC3)cc(-c3cccc4cc(-c5ccc(C(=O)NCC#Cc6cc7c(C8CCC(=O)NC8=O)cccc7o6)nc5)ncc34)cc21 (stereo not shown) [Example A261]
Reply: < 20%

Task item: // next record CC(C)c1cc(-c2cccc3cc(-c4ccc(C(=O)NCC#Cc5ccc6ncn(C7CCC(=O)NC7=O)c6c5)nc4)ncc23)cc2c1n(C)c(=O)n2C (stereo not shown) [Example A15]
Reply: < 20%

Task item: Then what about the molecule Cc1cc(-c2cc3cccc(-c4nc(N5CCOCC5)cc5c4cc(C)c(=O)n5C)c3cn2)cnc1C(=O)NCC#Cc1cc2c(C3CCC(=O)NC3=O)cccc2o1 (stereo not shown) [Example B167] ?
Reply: 60 to 79%

Task item: Please answer likewise for Cc1cc(-c2ncc3c(n2)OCCN3c2ccc3c(c2)n(C)c(=O)n3C)cnc1C(=O)NCC#Cc1cc2c([C@H]3CCC(=O)NC3=O)cccc2o1 [Example A174]
Reply: < 20%

Task item: Field entry: CNC(=O)c1c[nH]c2ccc(-c3cccc4cc(-c5ccc(C(=O)NCC#Cc6ccc7occ(C8CCC(=O)NC8=O)c7c6)nc5)ncc34)cc12 (stereo not shown) [Example C1]
Reply: < 20%

Task item: // repeat for Cc1cc2c(N3CCCc4nc(-c5ccc(C(=O)NCC#Cc6oc7cccc(C8CCC(=O)NC8=O)c7c6F)nc5)ncc43)cc(C3CCOCC3)cc2n(C)c1=O (stereo not shown) [Example B60] and report
Reply: < 20%

Task item: Note, next up: Cc1cc2c(N3CCCc4nc(-c5ccc(C(=O)NCC#Cc6cc7c([C@H]8CCC(=O)NC8=O)cccc7o6)nc5)ncc43)cc(C3CCOCC3)cc2n(C)c1=O [Example B38]
Reply: < 20%

Task item: Lookup Cc1cc2c(N3CCCc4cc(-c5ccc(C(=O)NCC#Cc6cc7c(C8CCC(=O)NC8=O)cccc7o6)nc5)ncc43)cc(C3CCOCC3)nc2n(C)c1=O (stereo not shown) [Example B169]
Reply: 40 to 59%

Task item: Cc1cc(-c2cc3cccc(-c4ccc5c(c4)n(C)c(=O)n5C)c3cn2)cnc1C(=O)NCC#Cc1ccc2occ([C@@H]3CCC(=O)NC3=O)c2c1 [Example A61] , same question.
Reply: < 20%

Task item: Also CC(C)c1cc(-c2cccc3cc(-c4ccc(C(=O)NCC#Cc5oc6c(C7CCC(=O)NC7=O)cccc6c5F)nc4)ncc23)cc2c1n(C)c(=O)n2C (stereo not shown) [Example A191] ?
Reply: < 20%

Task item: Moving on to CC(C)c1cc(N2CCCc3nc(-c4ccc(C(=O)NCC#Cc5cc6c(C7CCC(=O)NC7=O)cccc6o5)nc4)ncc32)cc2c1n(C)c(=O)n2C (stereo not shown) [Example A237]
Reply: < 20%

Task item: Ok, now CC(C)c1cc(C2=CC(C)(C)Oc3cc(-c4ccc(C(=O)NCC#Cc5ccc6occ(C7CCC(=O)NC7=O)c6c5)nc4)ncc32)cc2c1n(C)c(=O)n2C (stereo not shown) [Example A75]
Reply: < 20%

====

Target: p300 (Homo sapiens, UniProt Q09472)
Construct: host or cells: A549 P300 HiBit cells
Sequence (Q09472 whole entry): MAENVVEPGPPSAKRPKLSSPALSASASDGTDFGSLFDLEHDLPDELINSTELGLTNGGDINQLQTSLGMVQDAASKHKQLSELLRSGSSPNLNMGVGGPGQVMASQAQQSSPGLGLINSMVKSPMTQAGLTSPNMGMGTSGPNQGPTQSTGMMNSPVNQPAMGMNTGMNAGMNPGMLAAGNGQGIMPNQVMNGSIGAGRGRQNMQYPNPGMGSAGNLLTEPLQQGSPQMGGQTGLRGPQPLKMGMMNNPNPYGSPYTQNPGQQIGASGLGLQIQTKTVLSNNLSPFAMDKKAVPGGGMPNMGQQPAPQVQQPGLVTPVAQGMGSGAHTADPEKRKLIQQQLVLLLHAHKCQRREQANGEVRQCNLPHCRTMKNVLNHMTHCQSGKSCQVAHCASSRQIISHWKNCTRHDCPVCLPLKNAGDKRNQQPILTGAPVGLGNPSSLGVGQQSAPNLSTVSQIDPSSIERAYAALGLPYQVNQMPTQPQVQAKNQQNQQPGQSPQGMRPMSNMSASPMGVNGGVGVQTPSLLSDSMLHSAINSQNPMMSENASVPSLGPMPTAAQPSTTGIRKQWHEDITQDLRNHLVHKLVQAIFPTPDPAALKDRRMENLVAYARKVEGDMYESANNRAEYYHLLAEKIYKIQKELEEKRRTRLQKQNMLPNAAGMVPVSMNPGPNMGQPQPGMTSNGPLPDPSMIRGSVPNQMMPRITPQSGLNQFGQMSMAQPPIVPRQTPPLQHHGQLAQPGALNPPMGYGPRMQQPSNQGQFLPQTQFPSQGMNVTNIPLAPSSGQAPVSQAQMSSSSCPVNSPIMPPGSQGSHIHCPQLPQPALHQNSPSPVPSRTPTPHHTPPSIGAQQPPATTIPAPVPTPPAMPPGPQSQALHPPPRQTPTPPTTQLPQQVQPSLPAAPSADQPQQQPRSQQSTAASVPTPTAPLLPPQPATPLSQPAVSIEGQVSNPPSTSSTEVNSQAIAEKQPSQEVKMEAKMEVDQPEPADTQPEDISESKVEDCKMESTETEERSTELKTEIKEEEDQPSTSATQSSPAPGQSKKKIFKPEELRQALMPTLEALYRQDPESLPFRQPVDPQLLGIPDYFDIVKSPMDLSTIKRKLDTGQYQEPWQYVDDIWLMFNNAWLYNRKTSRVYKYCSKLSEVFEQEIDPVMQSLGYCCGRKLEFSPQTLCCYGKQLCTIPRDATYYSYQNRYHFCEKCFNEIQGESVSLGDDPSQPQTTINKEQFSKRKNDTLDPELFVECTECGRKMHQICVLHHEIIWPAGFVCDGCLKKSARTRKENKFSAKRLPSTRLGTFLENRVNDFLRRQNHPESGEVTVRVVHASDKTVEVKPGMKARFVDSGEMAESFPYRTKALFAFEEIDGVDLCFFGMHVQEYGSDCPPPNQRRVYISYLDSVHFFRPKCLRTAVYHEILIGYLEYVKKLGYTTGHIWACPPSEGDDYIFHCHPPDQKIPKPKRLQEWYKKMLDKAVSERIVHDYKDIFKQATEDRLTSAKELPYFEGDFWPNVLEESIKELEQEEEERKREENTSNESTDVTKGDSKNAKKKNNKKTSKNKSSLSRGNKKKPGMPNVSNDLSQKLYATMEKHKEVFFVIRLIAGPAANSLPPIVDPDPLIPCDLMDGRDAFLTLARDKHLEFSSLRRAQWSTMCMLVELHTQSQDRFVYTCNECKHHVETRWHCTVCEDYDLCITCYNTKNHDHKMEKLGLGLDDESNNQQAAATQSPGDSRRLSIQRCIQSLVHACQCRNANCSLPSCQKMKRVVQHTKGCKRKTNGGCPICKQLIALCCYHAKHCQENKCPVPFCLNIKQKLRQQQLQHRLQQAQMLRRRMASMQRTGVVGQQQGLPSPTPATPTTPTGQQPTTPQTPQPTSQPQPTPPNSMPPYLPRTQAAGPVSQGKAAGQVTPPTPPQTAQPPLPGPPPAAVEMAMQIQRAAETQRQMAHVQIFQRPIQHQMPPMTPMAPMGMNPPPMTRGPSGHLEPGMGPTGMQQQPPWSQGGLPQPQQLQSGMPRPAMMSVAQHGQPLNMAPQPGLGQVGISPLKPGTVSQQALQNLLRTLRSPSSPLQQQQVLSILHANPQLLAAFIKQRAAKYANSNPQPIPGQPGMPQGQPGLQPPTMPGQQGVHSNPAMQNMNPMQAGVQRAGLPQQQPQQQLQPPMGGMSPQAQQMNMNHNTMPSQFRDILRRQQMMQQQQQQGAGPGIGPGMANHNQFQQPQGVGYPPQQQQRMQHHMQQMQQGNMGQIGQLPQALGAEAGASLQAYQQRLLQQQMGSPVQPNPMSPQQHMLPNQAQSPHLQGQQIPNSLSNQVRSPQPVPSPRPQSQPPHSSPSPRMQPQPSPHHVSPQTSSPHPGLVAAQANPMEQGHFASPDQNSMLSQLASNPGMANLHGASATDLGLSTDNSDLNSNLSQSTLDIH
Assay: P300 degradation, HiBit technology in A549 P300 HiBit cells (2 h)
Format: cell-based
Conditions: A549, A549 P300 HiBit cells, 2 hrs post treatment
reportedProperty: Dmax

Task item: Field request: Dmax | item: Cc1cc2c(N3CCN(C)c4cc(-c5ccc(C(=O)NCC#Cc6ccc7occ(C8CCC(=O)NC8=O)c7c6)nc5)ncc43)cc(C3CCOCC3)cc2n(C)c1=O (stereo not drawn)
Reply: > 80%

Task item: Field entry: Cn1c(=O)n(C)c2c(N3CCC3)nc(-c3cccc4cc(-c5ccc(C(=O)NCC#Cc6cc7c(C8CCC(=O)NC8=O)cccc7o6)nc5)ncc34)cc21 (stereo not drawn)
Reply: > 80%

Task item: Now the compound Cc1cc(-c2ncc3c(n2)CCCN3c2nc(N3CCOCC3)cc3c2cc(C)c(=O)n3C)cnc1C(=O)NCC#Cc1ccc2occ(C3CCC(=O)NC3=O)c2c1 (stereo not drawn)
Reply: > 80%

Task item: `Cc1cc2c(N3CCCc4nc(-c5ccc(C(=O)NCC#Cc6cc7c([C@@H]8CCC(=O)NC8=O)cccc7o6)nc5)ncc43)cc(C3CCOCC3)nc2n(C)c1=O` ?
Reply: > 80%

Task item: Record: CC(C)c1cc(-c2cccc3cc(-c4ccc(C(=O)NCC#Cc5cnc6cnn(C7CCC(=O)NC7=O)c6c5)nc4)ncc23)cc2c1n(C)c(=O)n2C (stereo not drawn)
Reply: 60 to 79%

Task item: Now the same for Cc1cc2c(N3CCCc4nc(-c5cnc(C(=O)NCC#Cc6ccc7occ(C8CCC(=O)NC8=O)c7c6)c(Cl)c5)ncc43)cccc2n(C)c1=O (stereo not drawn)
Reply: > 80%
